# subject-of-test: thrombin (UniProt P00734;P00734 328-363;364-622)
# experiment-description: fluorescence attenuation kinetics (kapp); Binding buffer, salt, pH and temperature not given in the material (PBS listed among reagents); ex/em 333/426 nm, constant SITS-aptamer, thrombin titrated, trip

binder	Kd [nM]
GTCCGTGGTAGGGCAGGTTGGGGTGAC (structured_DNA, 5' NH2-(CH2)6 linker coupled to SITS) [SITS-Thrombin27 5']	1590
AGTCCGTGGTAGGGCAGGTTGGGGTGACT (structured_DNA, 5' NH2-(CH2)6 linker coupled to SITS) [SITS-Thrombin29 5']	851
GGTTGGTGTGGTTGG (structured_DNA, 5' NH2-(CH2)6 linker coupled to SITS) [SITS-Thrombin15 5']	10800
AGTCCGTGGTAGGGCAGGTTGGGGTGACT (structured_DNA, 3' (CH2)6-NH2 linker coupled to SITS) [SITS-Thrombin29 3']	180
GGTTGGTGTGGTTGG (structured_DNA, 3' (CH2)6-NH2 linker coupled to SITS) [SITS-Thrombin15 3']	4980
GTCCGTGGTAGGGCAGGTTGGGGTGAC (structured_DNA, 3' (CH2)6-NH2 linker coupled to SITS) [SITS-Thrombin27 3']	437
